Data credit: patent US20240415918A1

- System tested: CCK-B receptors (CHO-CCK) (Homo sapiens, UniProt P32239)
- Construct: expressed in transfected cells; host or cells: CHO (CHO-CCK model cells)
- Sequence (P32239 1-447): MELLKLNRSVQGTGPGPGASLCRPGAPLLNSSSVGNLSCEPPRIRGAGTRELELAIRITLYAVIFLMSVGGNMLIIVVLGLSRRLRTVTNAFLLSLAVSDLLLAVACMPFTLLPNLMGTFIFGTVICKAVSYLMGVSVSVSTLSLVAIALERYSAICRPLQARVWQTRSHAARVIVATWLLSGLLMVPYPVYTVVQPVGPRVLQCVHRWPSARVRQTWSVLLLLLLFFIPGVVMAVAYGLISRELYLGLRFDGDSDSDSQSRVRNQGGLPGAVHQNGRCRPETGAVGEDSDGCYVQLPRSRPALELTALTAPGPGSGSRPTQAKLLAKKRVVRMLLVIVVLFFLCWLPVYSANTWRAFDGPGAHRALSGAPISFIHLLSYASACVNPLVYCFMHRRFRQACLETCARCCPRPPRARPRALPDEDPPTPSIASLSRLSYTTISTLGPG
- Measurement notes: Calcium flux (Fluo-8) antagonist test on CHO-CCK model cells in presence of CCK8
- Type: cell-based
- Conditions used: in presence of 10 nM CCK8
Where a SMILES comes first, the peptide text is derived from it. [ ]: non-standard residue; d: D form. Phe(3-Br) = N[C@@H](Cc1cccc(Br)c1)C(=O)O; Gly(octyl) = CCCCCCCC[C@H](N)C(=O)O
Please provide measured EC50 for the entries that follow.
Numbers only, in µM.

Each compound below has a recorded value; state its EC50.
1. CSCC[C@H](NC(=O)[C@H](Cc1c[nH]c2ccccc12)NC(C)=O)C(=O)N[C@@H](CC(=O)O)C(=O)N[C@@H](Cc1cccc(Br)c1)C(=O)N[C@@H](C)C(N)=O [HT-201, Ac-D-Trp-Met-Asp-Phe(3-Br)-Ala-NH2]
2. CCCC[C@H](NC(=O)[C@H](Cc1c[nH]c2ccccc12)NC(C)=O)C(=O)N[C@@H](CC(=O)O)C(=O)N[C@@H](Cc1cn(C)c2ccccc12)C(N)=O [HT-228, Ac-D-Trp-Nle-Asp-(1-Me-Trp)-NH2]
3. CCCC[C@H](NC(=O)[C@@H](Cc1c(C)[nH]c2ccccc12)NC(C)=O)C(=O)N[C@@H](CC(=O)O)C(=O)N[C@@H](Cc1cn(C)c2ccccc12)C(N)=O [HT-234, Ac-(2-Me-Trp)-Nle-Asp-(1-Me-Trp)-NH2]
4. CCCCCCCC[C@H](NC(=O)[C@H](Cc1c[nH]c2ccccc12)NC(C)=O)C(=O)N[C@@H](CC(=O)O)C(=O)N[C@@H](Cc1cccc(Br)c1)C(N)=O [HT-261, Ac-D-Trp-Da-Asp-Phe(3-Br)-NH2] (Ac-W[Gly(octyl)]D[Phe(3-Br)]-NH2)

1. 3.6
2. 3.07
3. 4
4. 3.82
